Ratio Ki for assorted compounds
Species on record: Rattus norvegicus
Assay explanation: Selectivity for rat adenosine A2A receptor over rat adenosine A1 receptor
Quantity measured: Ratio Ki

> print(dat)
                                   compound  sign  result.number
1  COc1cccc(CN2CCCn3c2nc2c3c(=O)n(C)c(=O)n2C)c1     =            1.9
2  Cn1c(=O)c2c(nc3n2CCCN3Cc2ccccc2)n(C)c1=O     =           3.28
3  Cn1c(=O)c2c(nc3n2CCCN3Cc2ccccn2)n(C)c1=O     =              7
4  CC(c1ccccc1)N1CCCn2c1nc1c2c(=O)n(C)c(=O)n1C (centres undefined)     >            8.8
